Here, compounds appear alongside Ki reported for Tyrosine-protein kinase JAK3 (Homo sapiens, UniProt P52333) in the literature.

Sample records with Ki:
> print(dat)
                                   compound  observable  experimental.result
1  O=C(NCC(F)(F)F)[C@@H]1CCCN1c1nc(-c2c[nH]c3ncncc23)ncc1F          Ki       500 to 5000 nM
2  COCCN1CCN(C(=O)c2ccc(-c3cnc4c(-c5ccccn5)c(N)nn4c3)nc2)CC1          Ki       500 to 5000 nM
3  CCOC(=O)C1CCN(C(=O)c2cc(-c3ncnc4[nH]ccc34)c[nH]2)CC1          Ki       500 to 5000 nM
4  COC(=O)c1ccc(C2Nc3ccccc3-c3ccnc4[nH]cc2c34)cc1 (stereo not drawn)          Ki            > 2500 nM
5  Fc1ccc(F)c(C2Nc3ccccc3-c3ccnc4[nH]cc2c34)c1 (stereo not drawn)          Ki             ≤ 250 nM

So the reported Ki for CNC(=O)c1ccc(C2Nc3ccccc3-c3ccnc4[nH]cc2c34)cc1 (stereo not drawn) , on Tyrosine-protein kinase JAK3 (Homo sapiens, UniProt P52333), turned out to be > 2500 nM

So the reported Ki for O=C1COc2ccc(-c3ccnc(Nc4cccc(Oc5ccccc5)c4)n3)cc2N1Cc1ccccn1 , on Tyrosine-protein kinase JAK3 (Homo sapiens, UniProt P52333), turned out to be < 5000 nM

So the reported Ki for Cc1cccc(C)c1-c1cnc2c(-c3ccccn3)c(N)nn2c1 , on Tyrosine-protein kinase JAK3 (Homo sapiens, UniProt P52333), turned out to be > 5000 nM

So the reported Ki for Cc1cc(Nc2cc(N3CC(O)(C4CC4)C3)nc(Sc3ccc(NC(=O)C4CC4)cc3)n2)n[nH]1 , on Tyrosine-protein kinase JAK3 (Homo sapiens, UniProt P52333), turned out to be 140 nM
